Every entry's value here was drawn from patent US4238620A.

- Tested on: Ultraviolet-induced erythema in guinea-pigs
- assay-explanation: Ultraviolet-induced erythema in guinea-pigs (UVE method), acute inflammation
- Format: in vivo
- stated-conditions: Cavia porcellus, po, read-out: Anti-inflammatory activity ED50, acute inflammation, UVE
Kindly apply the following: met if ED50 is less than 1 mg/kg, not met in every other case.

• Cc1ccc2c(c1)CC(=O)c1cc(C(C)C(=O)O)ccc1S2 (racemic) = met
• COc1ccc2c(c1)c(CC(=O)O)c(C)n2C(=O)c1ccc(Cl)cc1 [compound 3, indomethacin, reference compound] = not met
• Cc1ccc2c(c1)CC(=O)c1cc(C(C)C(=O)OCCOCCO)ccc1S2 (racemic) = not met
• CC(C(=O)O)c1ccc2c(c1)C(=O)Cc1ccccc1O2 (stereo not shown) [compound 1, reference compound] = met
• Cc1ccc2c(c1)CC(=O)c1cc(C(C)C(=O)O)ccc1O2 (racemic) = met
• Cc1ccc2c(c1)CC(=O)c1cc(C(C)C(=O)OCCOCCO)ccc1O2 (racemic) = not met
